This collection of values is drawn from paper PMC10913730.

# reported MBC; entries follow
- Tested on: MRSA isolates
- method: MIC/MBC, CLSI broth microdilution, MRSA isolates
- Format: cell-based, Staphylococcus aureus
- assay_setup: Staphylococcus aureus, MRSA, pH 6.5, MRSA 0606, pH 6.5
attribute_measured: MBC (µg/mL)

• CN[C@H](CC(C)C)C(=O)N[C@H]1C(=O)N[C@@H](CC(N)=O)C(=O)N[C@H]2C(=O)N[C@H]3C(=O)N[C@H](C(=O)N[C@H](C(=O)O)c4cc(O)cc(O)c4-c4cc3ccc4O)[C@H](O)c3ccc(c(Cl)c3)Oc3cc2cc(c3O[C@@H]2O[C@H](CO)[C@@H](O)[C@H](O)[C@H]2O[C@H]2C[C@](C)(N)[C@H](O)[C@H](C)O2)Oc2ccc(cc2Cl)[C@H]1O [Vancomycin, vancomycin, reference compound] = 4
• [Na+].[Na+].[O-]c1c(Cl)cc(Cl)cc1-c1cc(Cl)cc(Cl)c1[O-] [C59Na] = 1

====

- Test system: MRSA isolates
- method: MIC/MBC, CLSI broth microdilution, MRSA isolates
- Assay type: cell-based, Staphylococcus aureus
- assay_setup: Staphylococcus aureus, MRSA, pH 6.5, MRSA 0606, pH 6.5
attribute_measured: MIC (µg/mL)

* Oc1c(Cl)cc(Cl)cc1-c1cc(Cl)cc(Cl)c1O | 1
* [Na+].[Na+].[O-]c1c(Cl)cc(Cl)cc1-c1cc(Cl)cc(Cl)c1[O-] [C59Na] | 0.5
* Oc1c(Br)cc(Br)cc1-c1cc(Br)cc(Br)c1O | 1
* [Li+].[Li+].[O-]c1c(Cl)cc(Cl)cc1-c1cc(Cl)cc(Cl)c1[O-] [C59Li] | 1
* CN[C@H](CC(C)C)C(=O)N[C@H]1C(=O)N[C@@H](CC(N)=O)C(=O)N[C@H]2C(=O)N[C@H]3C(=O)N[C@H](C(=O)N[C@H](C(=O)O)c4cc(O)cc(O)c4-c4cc3ccc4O)[C@H](O)c3ccc(c(Cl)c3)Oc3cc2cc(c3O[C@@H]2O[C@H](CO)[C@@H](O)[C@H](O)[C@H]2O[C@H]2C[C@](C)(N)[C@H](O)[C@H](C)O2)Oc2ccc(cc2Cl)[C@H]1O [Vancomycin, vancomycin, reference compound] | 1

====

- Test system: MRSA isolates
- method: MIC/MBC, CLSI broth microdilution, MRSA isolates
- Format: cell-based, Staphylococcus aureus
- assay_setup: Staphylococcus aureus, MRSA, pH 6.5, MRSA 0641, pH 6.5
attribute_measured: MIC (µg/mL)

- [Na+].[Na+].[O-]c1c(Cl)cc(Cl)cc1-c1cc(Cl)cc(Cl)c1[O-] [C59Na]: 0.5
- CN[C@H](CC(C)C)C(=O)N[C@H]1C(=O)N[C@@H](CC(N)=O)C(=O)N[C@H]2C(=O)N[C@H]3C(=O)N[C@H](C(=O)N[C@H](C(=O)O)c4cc(O)cc(O)c4-c4cc3ccc4O)[C@H](O)c3ccc(c(Cl)c3)Oc3cc2cc(c3O[C@@H]2O[C@H](CO)[C@@H](O)[C@H](O)[C@H]2O[C@H]2C[C@](C)(N)[C@H](O)[C@H](C)O2)Oc2ccc(cc2Cl)[C@H]1O [Vancomycin, vancomycin, reference compound]: 1
- Oc1c(Br)cc(Br)cc1-c1cc(Br)cc(Br)c1O [C58, MC21-A]: 1
- Oc1c(Cl)cc(Cl)cc1-c1cc(Cl)cc(Cl)c1O [C59]: 1
- [Li+].[Li+].[O-]c1c(Cl)cc(Cl)cc1-c1cc(Cl)cc(Cl)c1[O-] [C59Li]: 0.5

====

- method: pH and Ka of 10-g/L aqueous solutions (pH meter)
- Assay type: physicochemical
- assay_setup: 10-g/L solution in distilled, deionized water
Listed compounds paired with reported acid dissociation constant (Ka)
attribute_measured: acid dissociation constant (Ka)

- CC(=O)Oc1c(Cl)cc(Cl)cc1-c1cc(Cl)cc(Cl)c1OC(C)=O [C59Ac]: 2.45 × 10^−12
- Oc1c(Cl)cc(Cl)cc1-c1cc(Cl)cc(Cl)c1O: 6.18 × 10^−19
- Oc1c(Br)cc(Br)cc1-c1cc(Br)cc(Br)c1O: 1.26 × 10^−12
- [Na+].[Na+].[O-]c1c(Cl)cc(Cl)cc1-c1cc(Cl)cc(Cl)c1[O-] [C59Na]: 1.54 × 10^−16

====

- System: MRSA isolates
- method: MIC/MBC, CLSI broth microdilution, MRSA isolates
- Format: cell-based, Staphylococcus aureus
- assay_setup: Staphylococcus aureus, MRSA, pH 5.5, MRSA 0606, pH 5.5
attribute_measured: MBC (µg/mL)

• CN[C@H](CC(C)C)C(=O)N[C@H]1C(=O)N[C@@H](CC(N)=O)C(=O)N[C@H]2C(=O)N[C@H]3C(=O)N[C@H](C(=O)N[C@H](C(=O)O)c4cc(O)cc(O)c4-c4cc3ccc4O)[C@H](O)c3ccc(c(Cl)c3)Oc3cc2cc(c3O[C@@H]2O[C@H](CO)[C@@H](O)[C@H](O)[C@H]2O[C@H]2C[C@](C)(N)[C@H](O)[C@H](C)O2)Oc2ccc(cc2Cl)[C@H]1O [Vancomycin, vancomycin, reference compound] = 2
• [Na+].[Na+].[O-]c1c(Cl)cc(Cl)cc1-c1cc(Cl)cc(Cl)c1[O-] [C59Na] = 0.25
• Oc1c(Cl)cc(Cl)cc1-c1cc(Cl)cc(Cl)c1O [C59] = 0.5
• [Li+].[Li+].[O-]c1c(Cl)cc(Cl)cc1-c1cc(Cl)cc(Cl)c1[O-] [C59Li] = 0.25
• Oc1c(Br)cc(Br)cc1-c1cc(Br)cc(Br)c1O [C58, MC21-A] = 0.5

====

- Test system: MRSA isolates
- method: MIC/MBC, CLSI broth microdilution, MRSA isolates
- Type: cell-based, Staphylococcus aureus
- assay_setup: Staphylococcus aureus, MRSA, pH 7.4, read-out: Average MIC, average of six MRSA isolates, pH 7.4
Consider the following compounds and their measured MIC readings.
attribute_measured: MIC (µg/mL)

• [Li+].[Li+].[O-]c1c(Cl)cc(Cl)cc1-c1cc(Cl)cc(Cl)c1[O-] [C59Li] = 1.7
• Oc1c(Cl)cc(Cl)cc1-c1cc(Cl)cc(Cl)c1O [C59] = 2
• Oc1c(Br)cc(Br)cc1-c1cc(Br)cc(Br)c1O [C58, MC21-A] = 2
• CN[C@H](CC(C)C)C(=O)N[C@H]1C(=O)N[C@@H](CC(N)=O)C(=O)N[C@H]2C(=O)N[C@H]3C(=O)N[C@H](C(=O)N[C@H](C(=O)O)c4cc(O)cc(O)c4-c4cc3ccc4O)[C@H](O)c3ccc(c(Cl)c3)Oc3cc2cc(c3O[C@@H]2O[C@H](CO)[C@@H](O)[C@H](O)[C@H]2O[C@H]2C[C@](C)(N)[C@H](O)[C@H](C)O2)Oc2ccc(cc2Cl)[C@H]1O [Vancomycin, vancomycin, reference compound] = 1.7
• [Na+].[Na+].[O-]c1c(Cl)cc(Cl)cc1-c1cc(Cl)cc(Cl)c1[O-] [C59Na] = 1.8

====

- Test system: MRSA isolates
- method: MIC/MBC, CLSI broth microdilution, MRSA isolates
- Assay type: cell-based, Staphylococcus aureus
- assay_setup: Staphylococcus aureus, MRSA, pH 5.5, MRSA 0608, pH 5.5
attribute_measured: MIC (µg/mL)

• Oc1c(Br)cc(Br)cc1-c1cc(Br)cc(Br)c1O [C58, MC21-A] = 0.5
• [Li+].[Li+].[O-]c1c(Cl)cc(Cl)cc1-c1cc(Cl)cc(Cl)c1[O-] [C59Li] = 0.25
• CN[C@H](CC(C)C)C(=O)N[C@H]1C(=O)N[C@@H](CC(N)=O)C(=O)N[C@H]2C(=O)N[C@H]3C(=O)N[C@H](C(=O)N[C@H](C(=O)O)c4cc(O)cc(O)c4-c4cc3ccc4O)[C@H](O)c3ccc(c(Cl)c3)Oc3cc2cc(c3O[C@@H]2O[C@H](CO)[C@@H](O)[C@H](O)[C@H]2O[C@H]2C[C@](C)(N)[C@H](O)[C@H](C)O2)Oc2ccc(cc2Cl)[C@H]1O [Vancomycin, vancomycin, reference compound] = 4
• Oc1c(Cl)cc(Cl)cc1-c1cc(Cl)cc(Cl)c1O [C59] = 0.5
• [Na+].[Na+].[O-]c1c(Cl)cc(Cl)cc1-c1cc(Cl)cc(Cl)c1[O-] [C59Na] = 0.25

====

- System: MRSA isolates
- method: MIC/MBC, CLSI broth microdilution, MRSA isolates
- Format: cell-based, Staphylococcus aureus
- assay_setup: Staphylococcus aureus, MRSA, pH 6.5, MRSA 0606, pH 6.5
attribute_measured: MBC (µg/mL)

• Oc1c(Cl)cc(Cl)cc1-c1cc(Cl)cc(Cl)c1O = 6
• [Li+].[Li+].[O-]c1c(Cl)cc(Cl)cc1-c1cc(Cl)cc(Cl)c1[O-] [C59Li] = 1
• Oc1c(Br)cc(Br)cc1-c1cc(Br)cc(Br)c1O = 2
